Target Entity: Serine/threonine-protein kinase ULK3 (Homo sapiens, UniProt Q6PHR2); also: in the data inactive means no Kd found up to 30 µM
Sequence (Q6PHR2 whole entry): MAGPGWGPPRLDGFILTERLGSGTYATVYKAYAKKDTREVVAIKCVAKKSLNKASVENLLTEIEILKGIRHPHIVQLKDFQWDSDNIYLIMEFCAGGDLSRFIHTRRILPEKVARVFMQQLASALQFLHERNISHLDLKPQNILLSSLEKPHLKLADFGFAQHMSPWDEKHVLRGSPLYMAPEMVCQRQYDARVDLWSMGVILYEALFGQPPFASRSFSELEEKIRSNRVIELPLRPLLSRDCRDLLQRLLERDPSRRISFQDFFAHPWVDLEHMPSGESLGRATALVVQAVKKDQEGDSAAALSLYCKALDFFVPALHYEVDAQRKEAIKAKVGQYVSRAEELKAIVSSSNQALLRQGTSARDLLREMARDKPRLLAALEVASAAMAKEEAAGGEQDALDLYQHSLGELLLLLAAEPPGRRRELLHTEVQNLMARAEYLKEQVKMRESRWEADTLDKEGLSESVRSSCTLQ
Calls of active or inactive are those of the source.
Outcomes: active, inactive

{"Molecule Smiles": "C[C@@H](Oc1cc(C(=O)Nc2ccc(C(=O)N3CCN(C)CC3)cc2)nnc1N)c1c(Cl)ccc(F)c1Cl", "Class Assignment": "inactive"}
{"Molecule Smiles": "CNC(=O)c1nn(C)c2c1C(C)(C)Cc1cnc(Nc3ccc(N4CCN(C)CC4)cc3)nc1-2", "Class Assignment": "inactive"}
{"Molecule Smiles": "CC(=O)NCC(=O)N1[C@@H]2CC[C@H]1c1ccc(Nc3ncc(C(F)(F)F)c(NC4CCC4)n3)cc12", "Class Assignment": "active"}
{"Molecule Smiles": "Cn1cc(-c2cnn3c(N)c(Br)c([C@@H]4CCCNC4)nc23)cn1", "Class Assignment": "inactive"}
{"Molecule Smiles": "NC(=O)c1c(OCc2c(F)cc(Br)cc2F)nsc1NC(=O)NCCCCN1CCCC1", "Class Assignment": "inactive"}
{"Molecule Smiles": "FC(F)(F)c1ccc(/C=C/c2nc(COc3ccc(CCCCn4ccnn4)cc3)co2)cc1", "Class Assignment": "inactive"}
{"Molecule Smiles": "Cc1cc(Nc2ncnc3ccc(NC4=NC(C)(C)CO4)cc23)ccc1Oc1ccn2ncnc2c1", "Class Assignment": "inactive"}
{"Molecule Smiles": "CCNC(=O)C#Cc1ccc2c(c1)NC(=O)/C2=C(\\Nc1ccc(CN(C)C)cc1)c1ccccc1", "Class Assignment": "active"}
{"Molecule Smiles": "CO[C@H]1C[C@@H]2CC[C@@H](C)[C@@](O)(O2)C(=O)C(=O)N2CCCC[C@H]2C(=O)O[C@H]([C@H](C)C[C@@H]2CC[C@@H](OP(C)(C)=O)[C@H](OC)C2)CC(=O)[C@H](C)/C=C(\\C)[C@@H](O)[C@@H](OC)C(=O)[C@H](C)C[C@H](C)/C=C/C=C/C=C/1C", "Class Assignment": "inactive"}
{"Molecule Smiles": "C[C@H]1CNCCCN1S(=O)(=O)c1cccc2cncc(F)c12", "Class Assignment": "inactive"}

###

Target Entity: Mitogen-activated protein kinase kinase kinase 20 (Homo sapiens, UniProt Q9NYL2); also: in the data inactive means no Kd found up to 30 µM
Sequence (Q9NYL2 whole entry): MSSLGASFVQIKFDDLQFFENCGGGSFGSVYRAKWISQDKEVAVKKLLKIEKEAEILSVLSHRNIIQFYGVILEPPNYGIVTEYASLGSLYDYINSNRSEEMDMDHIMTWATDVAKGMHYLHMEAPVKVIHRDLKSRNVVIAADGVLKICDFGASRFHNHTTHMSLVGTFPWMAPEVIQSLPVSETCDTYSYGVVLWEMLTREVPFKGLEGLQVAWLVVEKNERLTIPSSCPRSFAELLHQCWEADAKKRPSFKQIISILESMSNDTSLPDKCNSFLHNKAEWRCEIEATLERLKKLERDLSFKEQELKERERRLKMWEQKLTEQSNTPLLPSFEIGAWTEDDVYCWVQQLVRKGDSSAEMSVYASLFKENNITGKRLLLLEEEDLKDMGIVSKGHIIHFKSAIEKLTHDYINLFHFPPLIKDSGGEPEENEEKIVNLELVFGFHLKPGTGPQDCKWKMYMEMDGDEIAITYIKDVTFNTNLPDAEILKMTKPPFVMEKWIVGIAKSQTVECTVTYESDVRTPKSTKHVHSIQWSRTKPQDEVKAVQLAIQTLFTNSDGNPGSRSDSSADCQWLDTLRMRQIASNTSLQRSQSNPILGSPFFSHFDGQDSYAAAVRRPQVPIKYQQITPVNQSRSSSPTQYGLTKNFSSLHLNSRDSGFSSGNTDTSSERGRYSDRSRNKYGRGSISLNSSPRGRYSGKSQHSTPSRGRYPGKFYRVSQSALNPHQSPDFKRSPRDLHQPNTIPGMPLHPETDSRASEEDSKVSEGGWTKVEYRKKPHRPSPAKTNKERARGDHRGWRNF
Calls of active or inactive are those of the source.
Outcomes: active, inactive

{"Molecule": "COc1ccc(S(=O)(=O)N(C(C)=O)c2ccccc2/C=C/c2cc[n+]([O-])cc2)cc1 [HMN-214]", "Class Assignment": "inactive"}
{"Molecule": "Cc1nc2cc(-c3nn(C(C)C)c4ncnc(N)c34)ccc2o1", "Class Assignment": "inactive"}
{"Molecule": "COc1cc2ncnc(Oc3cccc(NC(=O)Nc4cc(C(C)(C)C(F)(F)F)on4)c3)c2cc1OC [CEP-32496]", "Class Assignment": "active"}
{"Molecule": "Cc1cnc(NC(=O)Nc2cc(Br)c(C)cc2OC[C@@H]2CNCCO2)cn1 [RABUSERTIB]", "Class Assignment": "inactive"}

###

Target Entity: Receptor-interacting serine/threonine-protein kinase 2 (Homo sapiens); also: in the data inactive means no Kd found up to 30 µM
Sequence (O43353 whole entry): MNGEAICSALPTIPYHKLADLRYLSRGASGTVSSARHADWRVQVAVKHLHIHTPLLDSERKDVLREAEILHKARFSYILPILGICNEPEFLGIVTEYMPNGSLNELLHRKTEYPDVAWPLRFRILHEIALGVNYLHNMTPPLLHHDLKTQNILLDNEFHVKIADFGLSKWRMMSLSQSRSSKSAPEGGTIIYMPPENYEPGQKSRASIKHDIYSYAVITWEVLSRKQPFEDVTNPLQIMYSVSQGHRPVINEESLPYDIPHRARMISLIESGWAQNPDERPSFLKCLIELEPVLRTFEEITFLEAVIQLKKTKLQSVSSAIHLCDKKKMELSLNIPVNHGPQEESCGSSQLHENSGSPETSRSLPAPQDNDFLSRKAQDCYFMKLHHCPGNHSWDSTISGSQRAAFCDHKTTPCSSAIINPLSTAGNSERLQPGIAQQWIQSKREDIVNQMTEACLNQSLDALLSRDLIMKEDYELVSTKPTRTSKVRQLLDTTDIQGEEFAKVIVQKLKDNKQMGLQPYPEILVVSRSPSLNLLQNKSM
Calls of active or inactive are those of the source.
Outcomes: TRUE = active, FALSE = inactive

{"Compound": "Cc1cc(Nc2ncnc3ccc(NC4=NC(C)(C)CO4)cc23)ccc1Oc1ccn2ncnc2c1", "Class Assignment": "FALSE"}
{"Compound": "Cc1[nH]c(/C=C2\\C(=O)Nc3ccccc32)c(C)c1CCC(=O)O [ORANTINIB]", "Class Assignment": "FALSE"}
{"Compound": "COc1cc2c(Nc3ccc(Cl)c(Cl)c3F)ncnc2cc1OC[C@@H]1C[C@@H]2CN(C)C[C@@H]2C1", "Class Assignment": "TRUE"}

###

Parameter 'readout' = Kd; parameter 'system' = Aurora kinase B (Homo sapiens, UniProt Q96GD4). Also: in the data inactive means no Kd found up to 30 µM.
Sequence (Q96GD4 whole entry): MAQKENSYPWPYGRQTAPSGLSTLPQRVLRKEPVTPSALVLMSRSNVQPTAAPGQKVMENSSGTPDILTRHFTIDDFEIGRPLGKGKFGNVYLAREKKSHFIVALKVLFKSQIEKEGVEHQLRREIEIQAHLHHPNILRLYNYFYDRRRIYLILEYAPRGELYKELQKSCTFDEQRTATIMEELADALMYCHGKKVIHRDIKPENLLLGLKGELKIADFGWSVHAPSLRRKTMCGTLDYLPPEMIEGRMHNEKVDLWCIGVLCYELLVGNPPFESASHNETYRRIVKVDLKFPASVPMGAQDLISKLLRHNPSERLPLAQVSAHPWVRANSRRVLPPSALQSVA
Active and inactive are the calls of the source.

{"Compound": "CNC(=O)c1nn(C)c2c1C(C)(C)Cc1cnc(Nc3ccc(N4CCN(C)CC4)cc3)nc1-2 [MILCICLIB]", "Kd": "7.54 µM"}
{"Compound": "COc1cc([C@@H]2c3cc4c(cc3[C@H](O)[C@H]3COC(=O)[C@@H]23)OCO4)cc(OC)c1OC [AXL-1717]", "Kd": "> 30 µM (inactive)"}
{"Compound": "CC(=O)NCC(=O)N1[C@@H]2CC[C@H]1c1ccc(Nc3ncc(C(F)(F)F)c(NC4CCC4)n3)cc12 [PF-03814735]", "Kd": "0.02 µM (active)"}
{"Compound": "COCc1c(-c2ccc(NC(=O)Nc3cc(C(F)(F)F)ccc3F)c(F)c2)c2c(N)ncnn2c1CN1CCOCC1", "Kd": "> 30 µM (inactive)"}
{"Compound": "CCCCCCCCCCCCCCCCCCOP(=O)([O-])OC1CC[N+](C)(C)CC1 [PERIFOSINE]", "Kd": "> 30 µM (inactive)"}
{"Compound": "O=C1NC(=O)[C@@H](c2cn3c4c(cccc24)CCC3)[C@@H]1c1c[nH]c2ccccc12 [TIVANTINIB]", "Kd": "> 30 µM (inactive)"}
{"Compound": "Cn1cnc2c(F)c(Nc3ccc(Br)cc3F)c(C(=O)NOCCO)cc21 [BINIMETINIB]", "Kd": "> 30 µM (inactive)"}
{"Compound": "CO[C@H]1C[C@@H]2CC[C@@H](C)[C@@](O)(O2)C(=O)C(=O)N2CCCC[C@H]2C(=O)O[C@H]([C@H](C)C[C@@H]2CC[C@@H](OP(C)(C)=O)[C@H](OC)C2)CC(=O)[C@H](C)/C=C(\\C)[C@@H](O)[C@@H](OC)C(=O)[C@H](C)C[C@H](C)/C=C/C=C/C=C/1C [RIDAFOROLIMUS]", "Kd": "> 30 µM (inactive)"}

###

Target Entity: Ephrin type-A receptor 5 (Homo sapiens, UniProt P54756); also: in the data inactive means no Kd found up to 30 µM
Sequence (P54756 whole entry): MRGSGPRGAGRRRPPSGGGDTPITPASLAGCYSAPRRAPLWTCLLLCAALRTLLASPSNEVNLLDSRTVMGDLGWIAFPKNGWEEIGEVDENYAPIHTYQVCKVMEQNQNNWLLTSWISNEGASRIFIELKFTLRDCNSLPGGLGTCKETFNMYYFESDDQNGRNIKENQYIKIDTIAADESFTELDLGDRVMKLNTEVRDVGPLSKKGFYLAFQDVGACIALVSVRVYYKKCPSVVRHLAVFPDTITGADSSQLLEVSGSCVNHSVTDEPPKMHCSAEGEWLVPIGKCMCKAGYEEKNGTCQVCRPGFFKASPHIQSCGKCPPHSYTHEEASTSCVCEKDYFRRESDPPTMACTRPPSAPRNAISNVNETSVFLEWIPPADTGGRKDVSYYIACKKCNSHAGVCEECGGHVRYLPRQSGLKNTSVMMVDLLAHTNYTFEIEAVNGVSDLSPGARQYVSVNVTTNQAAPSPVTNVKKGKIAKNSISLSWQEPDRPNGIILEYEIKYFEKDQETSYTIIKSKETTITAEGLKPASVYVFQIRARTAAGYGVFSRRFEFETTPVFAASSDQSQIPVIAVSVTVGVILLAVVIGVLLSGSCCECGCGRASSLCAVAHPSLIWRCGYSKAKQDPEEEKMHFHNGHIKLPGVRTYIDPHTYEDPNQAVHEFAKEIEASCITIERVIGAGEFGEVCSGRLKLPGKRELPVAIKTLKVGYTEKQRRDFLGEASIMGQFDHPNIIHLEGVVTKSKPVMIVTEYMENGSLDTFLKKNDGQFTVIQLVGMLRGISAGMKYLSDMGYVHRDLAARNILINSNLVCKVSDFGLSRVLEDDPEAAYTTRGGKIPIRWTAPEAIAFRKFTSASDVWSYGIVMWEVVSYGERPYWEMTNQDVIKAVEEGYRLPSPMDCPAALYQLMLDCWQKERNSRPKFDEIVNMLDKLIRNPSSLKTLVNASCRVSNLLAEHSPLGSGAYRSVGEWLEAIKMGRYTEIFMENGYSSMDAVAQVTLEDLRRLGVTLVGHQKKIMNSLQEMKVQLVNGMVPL
Calls of active or inactive are those of the source.
Outcomes: active, inactive

{"Molecule": "O=C(Nc1cc(C(F)(F)F)cc(C(F)(F)F)c1)c1cc(Cl)ccc1O", "Class Assignment": "inactive"}
{"Molecule": "COc1c(OCCCN2CCOCC2)ccc2c1N=C(NC(=O)c1cnc(N)nc1)N1CCN=C21", "Class Assignment": "inactive"}
{"Molecule": "CC(C)c1cc(CNc2nc(Nc3cc(C4CC4)[nH]n3)cc(N3CCN(C)CC3)n2)on1", "Class Assignment": "active"}
{"Molecule": "CO[C@H]1C[C@@H]2CC[C@@H](C)[C@@](O)(O2)C(=O)C(=O)N2CCCC[C@H]2C(=O)O[C@H]([C@H](C)C[C@@H]2CC[C@@H](OC(=O)C(C)(CO)CO)[C@H](OC)C2)CC(=O)[C@H](C)/C=C(\\C)[C@@H](O)[C@@H](OC)C(=O)[C@H](C)C[C@H](C)/C=C/C=C/C=C/1C", "Class Assignment": "inactive"}
{"Molecule": "Cc1cc(Nc2ncc(Cl)c(Nc3ccccc3S(=O)(=O)C(C)C)n2)c(OC(C)C)cc1C1CCNCC1", "Class Assignment": "inactive"}
{"Molecule": "C[C@@H](Oc1cc(C(=O)Nc2ccc(C(=O)N3CCN(C)CC3)cc2)nnc1N)c1c(Cl)ccc(F)c1Cl", "Class Assignment": "inactive"}
{"Molecule": "C=CC(=O)N1CCC[C@H](n2c(=O)n(-c3ccc(Oc4ccccc4)cc3)c3c(N)ncnc32)C1", "Class Assignment": "inactive"}
{"Molecule": "Cn1ncc(Cl)c1-c1cc(C(=O)N[C@H](CN)Cc2ccc(F)c(F)c2)oc1Cl", "Class Assignment": "inactive"}
{"Molecule": "NC(=O)c1c(OCc2c(F)cc(Br)cc2F)nsc1NC(=O)NCCCCN1CCCC1", "Class Assignment": "inactive"}
{"Molecule": "O=C(Nc1nc2cccc(-c3ccc(CN4CCS(=O)(=O)CC4)cc3)n2n1)C1CC1", "Class Assignment": "inactive"}
{"Molecule": "Cn1cc(-c2cnn3c(N)c(Br)c([C@@H]4CCCNC4)nc23)cn1", "Class Assignment": "inactive"}
{"Molecule": "O=C(Nc1c[nH]nc1-c1nc2cc(CN3CCOCC3)ccc2[nH]1)NC1CC1", "Class Assignment": "inactive"}
{"Molecule": "Cc1cc(C(=O)NOCCO)c(Nc2ccc(I)cc2F)n(C)c1=O", "Class Assignment": "inactive"}
{"Molecule": "C=CC(=O)Nc1cc2c(Nc3ccc(F)c(Cl)c3)ncnc2cc1C#CC(C)(C)N1CCN(C)CC1 [AV-412 FREE BASE]", "Class Assignment": "inactive"}
{"Molecule": "CCOc1cc2ncc(C#N)c(Nc3ccc(F)c(Cl)c3)c2cc1NC(=O)/C=C/CN(C)C", "Class Assignment": "inactive"}
{"Molecule": "COc1ncc(-c2ccc3nccc(-c4ccnnc4)c3c2)cc1NS(=O)(=O)c1ccc(F)cc1F", "Class Assignment": "inactive"}
{"Molecule": "Cc1nc(Nc2n[nH]c3c2CN(C(=O)N[C@H](CN(C)C)c2ccccc2)C3(C)C)c2sccc2n1", "Class Assignment": "inactive"}
{"Molecule": "Cc1nc2cc(-n3ncc(C(=O)c4cc5ccccc5[nH]4)c3N)ccc2[nH]1", "Class Assignment": "inactive"}
